experiment: Hydrolytic degradation kinetics of neat monomers by 1H NMR; type: physicochemical; details: day 2; 50 mM monomer, aqueous pH=1, 37° C.
Hi there, I'd appreciate the recorded Percent remaining monomer for every entry that follows.
One number for each entry, in %.

>  <compound>
C=C(C)C(=O)OCCO [HEMA, 2-hydroxyethyl methacrylate, reference compound]

>  <test-readout>
Percent remaining monomer

>  <unit-of-measure>
%

>  <meas-value>
87.6

$$$$
>  <compound>
C=CC(=O)N(C)CCN(CCN(C)C(=O)C=C)CCN(C)C(=O)C=C

>  <test-readout>
Percent remaining monomer

>  <unit-of-measure>
%

>  <meas-value>
99.8

$$$$
>  <compound>
C=CC(=O)NN1CCCN(NC(=O)C=C)CC1 [BAADA, N,N′-bis(acrylamido) 1,4-diazepane]

>  <test-readout>
Percent remaining monomer

>  <unit-of-measure>
%

>  <meas-value>
100.0

$$$$

# evaluate next
Data request: Give the reported Percent remaining monomer for this compound. C=CC(=O)N(C)CCCN(C)CCCN(C)C(=O)C=C
Data returned: 100.0

meta.source: patent US20240052079A1
